Recorded pIC50 by entry
# target desc: E. coli SPase (Escherichia coli)
# Construct: Full length His-tagged E. coli SPase proteins were expressed in E. coli BL21(DE3); His-tag; made in house; host or cells: E. coli BL21(DE3)
# Sequence (P00803 whole entry): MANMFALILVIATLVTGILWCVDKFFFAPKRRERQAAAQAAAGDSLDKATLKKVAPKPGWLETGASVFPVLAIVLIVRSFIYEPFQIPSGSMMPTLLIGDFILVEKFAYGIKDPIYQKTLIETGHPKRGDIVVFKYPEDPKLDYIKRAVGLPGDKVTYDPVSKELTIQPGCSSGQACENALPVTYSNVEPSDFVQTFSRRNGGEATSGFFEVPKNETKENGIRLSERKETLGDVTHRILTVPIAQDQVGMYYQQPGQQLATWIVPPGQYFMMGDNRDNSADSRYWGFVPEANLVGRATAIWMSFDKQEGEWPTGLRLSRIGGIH
# protocol text: Enzymatic fluorogenic substrate cleavage assay for IC50
# Assay type: biochemical
pIC50: −log10 of the molar value.
endpoint name: pIC50

CCCCCCCCCCCCCCNC(=O)N(C)[C@H](CO)C(=O)N[C@H](C)C(=O)NCC(=O)N(C)[C@@H]1C(=O)N[C@@H](C)C(=O)N[C@H](C(=O)O)Cc2ccc(O)c(c2)-c2cc1ccc2O; > 6.00
CCCCCCCCCCCCCCCC(=O)N(C)[C@H](CO)C(=O)N[C@H](C)C(=O)N(C)CC(=O)N(C)[C@@H]1C(=O)N[C@@H](C)C(=O)N[C@H](C(=O)O)Cc2ccc(O)c(c2)-c2cc1ccc2O; > 6.00
CCCCCCCCCCCCCCCC(=O)N(C)[C@H](CO)C(=O)N[C@H](C)C(=O)NCC(=O)N(C)[C@@H]1C(=O)N[C@@H](C)C(=O)N[C@H](C(=O)N[C@H](CO)Cc2cnc[nH]2)Cc2ccc(O)c(c2)-c2cc1ccc2O; < 5.00
CCCCCCCCCCCCCCCC(=O)N(C)[C@H](CO)C(=O)N[C@H](C)C(=O)NCC(=O)N(C)[C@@H]1C(=O)N[C@@H](C)C(=O)N[C@H](C(=O)N[C@H](CO)Cc2c[nH]c3ccccc23)Cc2ccc(O)c(c2)-c2cc1ccc2O; 5.00 to 6.00
